For porcine pancreas lipase (Sus scrofa), measured pIC50 is reported for the entries below.
// returns pIC50 (minus log10 of molar concentration), number only

Value of measured pIC50 for the entry C=C1CCC2C(C)(C)CCC[C@]2(C)[C@H]1C/C=C(/CO)CCO (stereo partly shown) [Compound 4, (E)-Labda-8(17),12-diene-15,16-diol] : 3.59

Value of measured pIC50 for the entry C=C1CCC2C(C)(C)CCC[C@]2(C)[C@H]1C/C=C(\CC(=O)O)C(=O)O (stereo partly shown) [Compound 9] : 4.11

Value of measured pIC50 for the entry C=C1CCC2C(C)(C)CCC[C@]2(C)[C@H]1C/C=C(\CCO)COC(C)=O (stereo partly shown) [Compound 7] : 3.65

Value of measured pIC50 for the entry C=C1CCC2C(C)(C)CCC[C@]2(C)[C@H]1C/C=C(\CC(=O)OC)C(=O)OC (stereo partly shown) [Compound 10] : 3.92

###

- Assayed Target: rat intestinal α-glucosidase
- Assay Summary: α-glucosidase inhibition, rat intestinal acetone powder, pNPG hydrolysis
- Conditions Used: α-glucosidase from rat intestine acetone powder, pNPG substrate; read-out: IC α-Glucosidase
Measurement Type: pIC50
// returns pIC50 (minus log10 of molar concentration), number only

Value of measured pIC50 for the entry C=C1CCC2C(C)(C)CCC[C@]2(C)[C@H]1C/C=C(/CO)CCO (stereo partly shown) [Compound 4, (E)-Labda-8(17),12-diene-15,16-diol] : 1.94

Value of measured pIC50 for the entry C=C1CCC2C(C)(C)CCCC2(C)C1C=CC(C)=O (stereo not shown) [Compound 2] : 1.76

Value of measured pIC50 for the entry C[C@H]1O[C@H](O[C@H]2[C@H](O)[C@@H](O)[C@@H](O[C@H]3[C@H](O)[C@@H](O)C(O)O[C@@H]3CO)O[C@@H]2CO)[C@H](O)[C@@H](O)[C@@H]1N[C@H]1C=C(CO)[C@@H](O)[C@H](O)[C@H]1O (stereo partly shown) [Acarbose, acarbose, reference compound] : 3.42

Value of measured pIC50 for the entry C=C1CCC2C(C)(C)CCC[C@]2(C)[C@H]1C/C=C(/C=O)CC=O (stereo partly shown) [Compound 1, (E)-Labda-8(17),12-diene-15,16-dial] : 2.06
